We begin with a simple list: items and their reported pIC50.
# system: human ACC2 (Homo sapiens (Human), UniProt O00763)
# Sequence (O00763 129-2458): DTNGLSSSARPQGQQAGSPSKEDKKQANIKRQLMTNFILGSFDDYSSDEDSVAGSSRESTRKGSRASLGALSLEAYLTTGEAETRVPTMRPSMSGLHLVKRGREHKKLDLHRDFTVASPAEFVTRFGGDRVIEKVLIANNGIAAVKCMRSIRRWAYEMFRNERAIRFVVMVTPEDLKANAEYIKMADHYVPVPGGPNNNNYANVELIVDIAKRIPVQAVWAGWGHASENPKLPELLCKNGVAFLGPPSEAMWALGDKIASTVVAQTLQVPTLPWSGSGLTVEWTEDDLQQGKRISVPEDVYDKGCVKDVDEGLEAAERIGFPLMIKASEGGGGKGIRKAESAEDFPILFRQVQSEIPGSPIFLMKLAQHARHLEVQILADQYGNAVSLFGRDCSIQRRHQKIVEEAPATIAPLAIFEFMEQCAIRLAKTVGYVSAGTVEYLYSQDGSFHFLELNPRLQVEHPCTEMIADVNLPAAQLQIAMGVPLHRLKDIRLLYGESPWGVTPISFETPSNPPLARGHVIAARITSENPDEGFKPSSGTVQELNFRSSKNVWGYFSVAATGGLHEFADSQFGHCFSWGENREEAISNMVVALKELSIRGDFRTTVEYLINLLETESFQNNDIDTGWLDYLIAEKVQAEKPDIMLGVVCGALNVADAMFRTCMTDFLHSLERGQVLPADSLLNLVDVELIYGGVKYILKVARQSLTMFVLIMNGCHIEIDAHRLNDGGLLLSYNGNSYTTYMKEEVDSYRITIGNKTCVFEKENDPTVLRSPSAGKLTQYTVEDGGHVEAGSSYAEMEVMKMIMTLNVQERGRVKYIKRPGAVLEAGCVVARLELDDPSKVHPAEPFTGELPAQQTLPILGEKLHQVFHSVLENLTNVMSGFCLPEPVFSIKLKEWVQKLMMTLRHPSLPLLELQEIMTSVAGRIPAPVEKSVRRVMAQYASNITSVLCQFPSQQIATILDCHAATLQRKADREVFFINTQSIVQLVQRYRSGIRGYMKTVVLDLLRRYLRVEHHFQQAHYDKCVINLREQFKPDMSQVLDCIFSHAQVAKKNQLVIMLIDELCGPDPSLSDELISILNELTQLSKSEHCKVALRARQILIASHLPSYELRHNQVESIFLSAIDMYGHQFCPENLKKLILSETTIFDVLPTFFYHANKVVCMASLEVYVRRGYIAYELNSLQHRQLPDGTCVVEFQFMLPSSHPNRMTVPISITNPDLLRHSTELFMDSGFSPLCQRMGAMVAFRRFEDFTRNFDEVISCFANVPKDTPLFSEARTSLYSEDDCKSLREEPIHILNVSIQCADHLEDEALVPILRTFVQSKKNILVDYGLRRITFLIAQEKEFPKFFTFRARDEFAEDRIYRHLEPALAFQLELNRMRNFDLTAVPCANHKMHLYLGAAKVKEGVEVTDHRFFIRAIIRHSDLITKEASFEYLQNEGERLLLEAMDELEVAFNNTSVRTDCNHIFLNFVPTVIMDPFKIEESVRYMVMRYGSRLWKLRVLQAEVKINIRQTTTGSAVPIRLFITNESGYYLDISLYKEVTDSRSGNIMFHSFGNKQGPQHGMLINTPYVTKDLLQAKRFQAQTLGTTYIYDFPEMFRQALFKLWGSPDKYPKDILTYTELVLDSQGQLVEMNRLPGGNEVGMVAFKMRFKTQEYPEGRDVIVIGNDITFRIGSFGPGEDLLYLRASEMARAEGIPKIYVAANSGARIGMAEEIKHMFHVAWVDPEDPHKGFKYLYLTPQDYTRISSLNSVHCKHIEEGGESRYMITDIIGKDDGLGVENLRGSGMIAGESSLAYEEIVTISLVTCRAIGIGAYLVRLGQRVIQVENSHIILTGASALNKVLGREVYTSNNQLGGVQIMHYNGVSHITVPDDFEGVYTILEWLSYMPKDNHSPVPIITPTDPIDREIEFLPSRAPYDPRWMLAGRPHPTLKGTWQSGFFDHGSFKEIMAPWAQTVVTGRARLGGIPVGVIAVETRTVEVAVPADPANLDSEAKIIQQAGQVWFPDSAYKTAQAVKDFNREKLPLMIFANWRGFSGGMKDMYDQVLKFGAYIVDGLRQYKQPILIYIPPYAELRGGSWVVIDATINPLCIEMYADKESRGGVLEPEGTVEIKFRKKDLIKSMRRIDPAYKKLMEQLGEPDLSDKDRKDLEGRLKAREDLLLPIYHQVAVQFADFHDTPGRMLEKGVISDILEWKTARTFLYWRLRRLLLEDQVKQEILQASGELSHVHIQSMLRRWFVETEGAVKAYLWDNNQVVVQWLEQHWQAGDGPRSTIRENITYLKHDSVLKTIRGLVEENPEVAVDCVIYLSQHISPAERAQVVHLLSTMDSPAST
# procedure summary: ACC2 assay (spectrophotometric 384 well assay, NADH-linked kinetic method)
# Type: biochemical
# stated conditions: hACC2 construct lacking 128 N-terminal amino acids; coupled lactate dehydrogenase/pyruvate kinase reaction, 340 nm, 25° C.
# Experimental: Spectrophotometric 384 Well Assay Malonyl CoA formation by acetyl CoA carboxylases is stoichometrically linked to the consumption of ATP. ACC2 activity is measured in a NADH-linked kinetic method measuring ADP generated during the ACC reaction using a coupled lactate dehydrogenase/pyruvate kinase reaction. The protein is then expressed in insect cells using a baculoviral expression system. Protein purification is performed by anion exchange. […]
pIC50: −log10 of the molar value.
property: pIC50

compound: CC(=O)N[C@@H](C)c1ccc(O[C@@H]2CCN(c3nc(N4CCCC(F)(F)C4)ncc3Cl)C2)cc1
property: pIC50
test value: 6.50
//
compound: CC(=O)N[C@@H](C)c1ccc(O[C@@H]2CCN(c3ccnc(N4[C@H](C)COC[C@@H]4C)n3)C2)cc1
property: pIC50
test value: 6.44
//
compound: CC(=O)N[C@@H](C)c1ccc(O[C@@H]2CCN(c3ncnc(N4CCOC(C(F)(F)F)C4)c3F)C2)cc1 (stereo partly shown)
property: pIC50
test value: 6.26
//
compound: CC(=O)N[C@@H](C)c1ccc(O[C@@H]2CCN(c3ccnc(N(C)C4CCC4)n3)C2)cc1
property: pIC50
test value: 7.10
//
compound: CC(=O)N[C@@H](C)c1ccc(O[C@@H]2CCN(c3ccnc(N(C)C4CCCOC4)n3)C2)cc1 (stereo partly shown)
property: pIC50
test value: 6.56
//
compound: CC(=O)N[C@@H](C)c1ccc(O[C@@H]2CCN(c3nc(N4CCCC4(C)C)ncc3Cl)C2)cc1
property: pIC50
test value: 6.67
//
compound: CC(=O)N[C@@H](C)c1ccc(O[C@@H]2CCN(c3nc(N(C)CC(C)O)ncc3F)C2)cc1 (stereo partly shown)
property: pIC50
test value: 6.31

---

# system: UniProt O00763
# procedure summary: ACC2 assay (spectrophotometric 384 well assay, NADH-linked kinetic method)
# Type: biochemical
# stated conditions: hACC2 construct lacking 128 N-terminal amino acids; coupled lactate dehydrogenase/pyruvate kinase reaction, 340 nm, 25° C.
Please respond with met when measured IC50 is strictly beneath 200 nM, and with not met in all other cases.

molecule: COc1c(OCC2CC2)ncnc1N1CC[C@@H](Oc2ccc([C@H](C)NC(=O)C3CC(F)C3)cc2)C1 (stereo partly shown)
assigned label: not met
--
molecule: CC(=O)N[C@@H](C)c1ccc(O[C@@H]2CCN(c3nc(N4CCCC(F)(F)C4)ncc3F)C2)cc1
assigned label: met
--
molecule: COc1c(N2CC[C@@H](Oc3ccc([C@H](C)NC(C)=O)cc3)C2)ncnc1N1CCC(C)(O)C1 (stereo partly shown)
assigned label: not met
--
molecule: CC(=O)N[C@@H](C)c1ccc(O[C@@H]2CCN(c3ccnc(N4CCC(C#N)C4)n3)C2)cc1 (stereo partly shown)
assigned label: not met
--
molecule: CC(=O)N[C@@H](C)c1ccc(O[C@@H]2CCN(c3ccnc(N4[C@H](C)COC[C@H]4C)n3)C2)cc1
assigned label: met
--
molecule: CC(=O)N[C@@H](C)c1ccc(O[C@@H]2CCN(c3ncc(OCC4CC4(F)F)cn3)C2)cc1 (stereo partly shown)
assigned label: met
--
molecule: CCN(C)c1ncnc(N2CC[C@@H](Oc3ccc([C@H](C)NC(C)=O)cc3)C2)c1F
assigned label: met
